Reference source for all entries: the supplement of paper PMC7877785

assay: self-splicing fitness, log relative to wild type (ln ratio); higher = more splicing; Tetrahymena group I intron in knt gene, E. coli kanamycin selection, DiMSum; sequences stand for … in CUCUCU…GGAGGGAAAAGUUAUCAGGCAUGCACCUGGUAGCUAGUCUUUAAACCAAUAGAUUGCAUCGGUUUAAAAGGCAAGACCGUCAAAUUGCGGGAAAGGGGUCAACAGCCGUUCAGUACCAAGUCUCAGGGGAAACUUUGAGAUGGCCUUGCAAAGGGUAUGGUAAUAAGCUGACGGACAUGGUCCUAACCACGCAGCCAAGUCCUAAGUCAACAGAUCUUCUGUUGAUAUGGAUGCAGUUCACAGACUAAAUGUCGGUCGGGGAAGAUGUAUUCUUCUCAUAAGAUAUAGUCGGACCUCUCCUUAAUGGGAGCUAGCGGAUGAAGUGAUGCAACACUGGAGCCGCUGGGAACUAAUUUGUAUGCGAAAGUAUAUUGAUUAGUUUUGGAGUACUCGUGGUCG; conditions: 30 °C;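 note: selection with 25 µg/mL kanamycin versus none on LB agar overnight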
Quick reference for self-splicing fitness (ln) among some sequences
Respond using a number only.

INSERT INTO assay_data (primary_sequence, test_value) VALUES
  ('UUUGAGCAAUAUUACGCUGA', -2.58),
  ('CAGCAGCAAUAUUACGAGUU', -3.95);

Form field self-splicing fitness (ln), entry UUACAGCAAUAUUACGUUUG : -1.54

Form field self-splicing fitness (ln), entry GCCUAGCAAUAUUACGCAUA : -0.13

* * *

experiment: self-splicing fitness, log relative to wild type (ln ratio); higher = more splicing; Tetrahymena group I intron in knt gene, E. coli kanamycin selection, DiMSum; sequences stand for … in CUCUCU…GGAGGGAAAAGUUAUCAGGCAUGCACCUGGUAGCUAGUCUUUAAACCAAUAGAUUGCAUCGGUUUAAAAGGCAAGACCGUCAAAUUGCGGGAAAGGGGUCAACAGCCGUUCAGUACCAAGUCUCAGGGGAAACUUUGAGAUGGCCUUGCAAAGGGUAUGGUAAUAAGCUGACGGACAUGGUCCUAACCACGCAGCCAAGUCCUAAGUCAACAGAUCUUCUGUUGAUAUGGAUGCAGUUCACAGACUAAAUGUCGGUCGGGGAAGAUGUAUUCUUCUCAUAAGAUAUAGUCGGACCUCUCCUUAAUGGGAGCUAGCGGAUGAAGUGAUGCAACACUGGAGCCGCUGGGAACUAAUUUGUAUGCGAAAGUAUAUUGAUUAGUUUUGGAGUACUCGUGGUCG; conditions: 30 °C
Recorded Metric: self-splicing fitness (ln)
Respond using a number only.

// below: answered sequences
INSERT INTO results (primary_sequence, test_value) VALUES
  ('CCGGAGCAAUAUUACGGGCU', -3.52),
  ('AGCGAGCAAUAUUACGCAAC', -3.6),
  ('AUAGAGCAAUAUUACGAGCU', -1.71),
  ('UGGGAGCAAUAUUACGUAAA', -1.97),
  ('CUUAAGCAAUAUUACGAUGG', -1.17),
  ('AAUCAGCAAUAUUACGUAUC', -0.504);

Form field self-splicing fitness (ln), entry ACUAAGCAAUAUUACGGCCU : -0.171

Form field self-splicing fitness (ln), entry UAAAAGCAAUAUUACGCCUC : -2.82

Form field self-splicing fitness (ln), entry UCGCAGCAAUAUUACGAUCG : -0.735

Form field self-splicing fitness (ln), entry UAUCAGCAAUAUUACGUUGA : -2.15

Form field self-splicing fitness (ln), entry GUCCAGCAAUAUUACGCAAC : -0.987

Form field self-splicing fitness (ln), entry ACACAGCAAUAUUACGCAGG : -2.43
